- Species on record: Oryctolagus cuniculus
- procedure-summary: Agonist activity at rabbit angiotensin […] receptor in aorta strips assessed as peptide concentration required to produce 50% maximal response under exclusion of long wavelength UV light
Non-standard residues stand in square brackets, D forms with d. Residues, ends and D or L forms follow the SMILES beside them. Phe(4-N3) = [N-]=[N+]=Nc1ccc(C[C@H](N)C(=O)O)cc1; Phe(4-N2+) = N#[N+]c1ccc(C[C@H](N)C(=O)O)cc1; Phe(4-NH2) = Nc1ccc(C[C@H](N)C(=O)O)cc1; Sar = CNCC(=O)O
property-name: pD2

compound	endpoint-value
CNCC(=O)N[C@@H](CCCNC(=N)N)C(=O)N[C@H](C(=O)N[C@@H](Cc1ccc([N+]#N)cc1)C(=O)N[C@H](C(=O)N[C@@H](Cc1cnc[nH]1)C(=O)N1CCC[C@H]1C(=O)N[C@@H](Cc1ccc([N+]#N)cc1)C(=O)O)C(C)C)C(C)C (H-[Sar]RV[Phe(4-N2+)]VHP[Phe(4-N2+)]-OH)	7.36
CNCC(=O)N[C@@H](CCCNC(=N)N)C(=O)N[C@H](C(=O)N[C@@H](Cc1ccc(N)cc1)C(=O)N[C@H](C(=O)N[C@@H](Cc1cnc[nH]1)C(=O)N1CCC[C@H]1C(=O)N[C@@H](Cc1ccc(N)cc1)C(=O)O)C(C)C)C(C)C (H-[Sar]RV[Phe(4-NH2)]VHP[Phe(4-NH2)]-OH)	8.17
CNCC(=O)N[C@@H](CCCNC(=N)N)C(=O)N[C@H](C(=O)N[C@@H](Cc1ccc(O)cc1)C(=O)N[C@H](C(=O)N[C@@H](Cc1cnc[nH]1)C(=O)N1CCC[C@H]1C(=O)N[C@@H](Cc1ccc([N+]#N)cc1)C(=O)O)C(C)C)C(C)C	8.33
CNCC(=O)N[C@@H](CCCNC(=N)N)C(=O)N[C@H](C(=O)N[C@@H](Cc1ccc(O)cc1)C(=O)N[C@H](C(=O)N[C@@H](Cc1cnc[nH]1)C(=O)N1CCC[C@H]1C(=O)N[C@@H](Cc1ccc(N)cc1)C(=O)O)C(C)C)C(C)C	8.8
CNCC(=O)N[C@@H](CCCNC(=N)N)C(=O)N[C@H](C(=O)N[C@@H](Cc1ccc(O)cc1)C(=O)N[C@H](C(=O)N[C@@H](Cc1cnc[nH]1)C(=O)N1CCC[C@H]1C(=O)N[C@@H](Cc1ccc([N+](=O)[O-])cc1)C(=O)O)C(C)C)C(C)C	9.07
CNCC(=O)N[C@@H](CCCNC(=N)N)C(=O)N[C@H](C(=O)N[C@@H](Cc1ccc([N+]#N)cc1)C(=O)N[C@H](C(=O)N[C@@H](Cc1cnc[nH]1)C(=O)N1CCC[C@H]1C(=O)N[C@@H](Cc1ccccc1)C(=O)O)C(C)C)C(C)C (H-[Sar]RV[Phe(4-N2+)]VHPF-OH)	7.05
CNCC(=O)N[C@@H](CCCNC(=N)N)C(=O)N[C@H](C(=O)N[C@@H](Cc1ccc(N)cc1)C(=O)N[C@H](C(=O)N[C@@H](Cc1cnc[nH]1)C(=O)N1CCC[C@H]1C(=O)N[C@@H](Cc1ccccc1)C(=O)O)C(C)C)C(C)C (H-[Sar]RV[Phe(4-NH2)]VHPF-OH)	8.41
CNCC(=O)N[C@@H](CCCNC(=N)N)C(=O)N[C@H](C(=O)N[C@@H](Cc1ccc(N=[N+]=[N-])cc1)C(=O)N[C@H](C(=O)N[C@@H](Cc1cnc[nH]1)C(=O)N1CCC[C@H]1C(=O)N[C@@H](Cc1ccccc1)C(=O)O)C(C)C)C(C)C (H-[Sar]RV[Phe(4-N3)]VHPF-OH)	6.65
CNCC(=O)N[C@@H](CCCNC(=N)N)C(=O)N[C@H](C(=O)N[C@@H](Cc1ccc(N=[N+]=[N-])cc1)C(=O)N[C@H](C(=O)N[C@@H](Cc1cnc[nH]1)C(=O)N1CCC[C@H]1C(=O)N[C@@H](Cc1ccc(N=[N+]=[N-])cc1)C(=O)O)C(C)C)C(C)C (H-[Sar]RV[Phe(4-N3)]VHP[Phe(4-N3)]-OH)	6.12
